test: compound fluorescence in toxin protease inhibitor counterscreen, primary screen, artefact control for toxin protease inhibitor project, biochemical, multiplex microsphere, HTS (AID 624483); conditions: compound autofluorescence counterscreen, microsphere flow cytometry; hits give high values
The campaign covered roughly 360,000 compounds. About 11,000 (3.1%) were called active. Roughly 2% stayed inconclusive and do not appear here. Only a selection was taken, and actives are over-represented in it overall.
MEASURED ATTRIBUTE: fluorescence intensity
Reply with just the number.

CCC(=NCCCO)c1c(O)n(-c2ccc(OC)cc2)c(=O)[nH]c1=O    3280

Data request: Which fluorescence intensity value is on record for "CCOC(=O)[C@H]1[C@H]2COc3ccc(Cl)cc3[C@@H]2N2C(=O)c3cc(C)ccc3NC(=O)[C@@]12C" ?
Data returned: 3320

Data request: Name the recorded fluorescence intensity for "CCCCn1c(O)c(C(CC)=NCc2ccco2)c(=O)[nH]c1=O" .
Data returned: 22200

Data request: Reported fluorescence intensity for COc1ccc(C(c2nnnn2C2CCCCC2)N2CCN(c3ccccc3F)CC2)cc1 (stereo unspecified) : what is it?
Data returned: 2590

Data request: For the compound "CC(C)(C)S(=O)(=O)N1Cc2cc(CO)cc(CCO)c2[C@H]1CCO" , what fluorescence intensity is on record?
Data returned: 3670

* * *

Some compounds, each annotated with its measured fluorescence intensity.
experiment: compound fluorescence in toxin protease inhibitor counterscreen, primary screen, artefact control for toxin protease inhibitor project, biochemical, multiplex microsphere, HTS (AID 624483); settings: compound autofluorescence counterscreen, microsphere flow cytometry; hits give high values
About 11,000 (3.1%) of roughly 360,000 compounds were called active. Not shown: some 2% with an inconclusive outcome. This excerpt belongs to a sample that is enriched for actives.
Hey, just send me the number, nothing else.

In the examples that follow, each entry is paired with its recorded fluorescence intensity.
Cc1cc(C(F)(F)F)nc(SCC(=O)Nc2nccs2)n1    4960
CC(=O)Nc1ccc(SCC(=O)Nc2ccccc2Oc2ccccc2)cc1    2020
CCn1c(SCC(=O)Nc2sc(C)c(C)c2C#N)nnc1C1CC1    4370
O=C1OC(OC(=O)c2ccccc2Br)C(N2CCOCC2)=C1Cl (stereo unspecified)    6700
COc1cccc(C(NC(C)=O)c2nc(-c3ccccc3OC)cs2)c1 (stereo unspecified)    3680

Here's the next entry for you.
Data request: Name the reported fluorescence intensity value associated with the compound "O=[N+]([O-])c1ccc(NCCCN2CCOCC2)c(Cl)c1"
Data returned: 22800

* * *

assay: compound fluorescence in toxin protease inhibitor counterscreen, primary screen, artefact control for toxin protease inhibitor project, biochemical, multiplex microsphere, HTS (AID 624483); conditions: compound autofluorescence counterscreen, microsphere flow cytometry; hits give high values
Hit rate of the full screen: of about 360,000 compounds, about 11,000 (3.1%) were called active. Not shown: some 2% with an inconclusive outcome. The sample as a whole holds a higher share of actives than the screen did.
Lab note: compare fluorescence intensity against 20000. Equal or greater, write Met. Smaller, write Not met.

COc1cccc(CNc2nc3cc(-c4csc5ccccc45)sc3c(=O)n2C)c1    Not met
COc1ccc(-c2nnn(CC(=O)N(CCO)C(C(=O)NC3CCCC3)c3ccc(F)cc3)n2)cc1 (stereo not given)    Met
O=C(CN1CCN(c2ccccn2)CC1)NC1CCCCC1    Not met
CC1(C(=O)NS(=O)(=O)c2cccs2)CCN1C(=O)Cc1ccc(-c2ccccc2)cc1 (stereo not given)    Not met

Continue with the next molecule.
Data request: Given the entry CC(C)CCNC(=O)C(C)N(C(=O)Cn1nnc(-c2ccc(F)cc2)n1)C1CCCC1 (stereo not given) , answer whether its fluorescence intensity meets or surpasses 20000.
Data returned: Met
